Where do these numbers come from? They come from patent US9394297B2.

Molecular target: Pim-1 (Homo sapiens (Human))
Sequence (P11309 whole entry): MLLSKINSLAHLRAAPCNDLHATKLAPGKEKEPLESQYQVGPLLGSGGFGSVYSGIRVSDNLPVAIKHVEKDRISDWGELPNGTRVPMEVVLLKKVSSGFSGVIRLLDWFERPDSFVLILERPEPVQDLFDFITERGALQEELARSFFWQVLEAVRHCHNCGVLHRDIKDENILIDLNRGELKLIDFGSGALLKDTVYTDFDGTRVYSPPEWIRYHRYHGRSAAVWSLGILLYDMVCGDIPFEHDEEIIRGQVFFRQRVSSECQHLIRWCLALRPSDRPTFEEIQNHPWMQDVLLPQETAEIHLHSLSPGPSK
Experiment: Pim enzyme assay (HTRF, 96-well), Pim-1
Format: biochemical
Settings: full length recombinant Pim-1, biotinylated-BAD (S112) peptide, 10-point curve, 2 h RT, read-out: Pim-1 IC50 IP
pIC50: −log10 of the molar value.
Response key: true (1) means pIC50 >= 8; false (0) means pIC50 < 8.

> print(dat)
                                   compound  answer.label
1  O=C1NCCc2[nH]c(-c3cccc4ccc(-c5ccccc5)nc34)cc21     false (0)
2  CC(C)CC1CNC(=O)c2cc(-c3cccc4cccnc34)[nH]c21 (racemic)     false (0)
3  O=c1[nH]ccc2[nH]c(-c3cccc4ccc(Nc5ccccc5)nc34)nc12 [Example 189, 2,2,2-trifluoroacetate]     false (0)
4  O=C1NCCc2[nH]c(-c3cccc4ccc(Nc5ccccc5F)nc34)cc21      true (1)
5  O=C1NCCc2[nH]c(-c3cccc4ccc(NC5CCCC5)nc34)cc21      true (1)
6  O=C1NCCc2[nH]c(-c3cccc4ncc(Nc5ccccc5)nc34)cc21      true (1)

Now consider the entry below.
**Query** Reported pIC50 at or above 8? CCC1CNC(=O)c2cc(-c3cccc4cc(C)c(Nc5ccccc5)nc34)[nH]c21 (racemic) [Example 250]
**Result** true (1)
